# Tested on: HTT mRNA
# test: RT-qPCR splicing assay, HTT canonical (CJ) and alternative (AJ) junction mRNA
# Type: cell-based, human
# recorded_conditions: Homo sapiens, 24 h, Table 3B; A673 or K562 cells, 24 h treatment; read-out: HTT CJ (IC50, decrease in CJ mRNA)
Recorded IC50 by entry

CCC(C)(C)NC1CCN(c2ccc(-c3cc4oc(C)nc4cc3O)nn2)C1 (centres unmarked) [Compound 836] | 0.1 to 1 µM
Cc1nc2cc(O)c(-c3ccc(N4CC[C@H](NC(C)(C)C)C4)nn3)cc2o1 [Compound 813] | 0.1 to 1 µM
Cc1nc2cc(O)c(-c3ccc(N4CC[C@@H](NC(C)(C)C(C)C)C4)nn3)cc2o1 [Compound 874] | < 0.1 µM
Cc1nc2cc(O)c(-c3ccc(N4CCC(C)(NC(C)(C)C)C4)nn3)cc2o1 (centres unmarked) [Compound 837] | 0.1 to 1 µM

Summary line: Cn1cc2cc(-c3cnc(N4CC[C@@H](NC(C)(C)C)C4)nn3)c(O)cc2n1 [Compound 805] , HTT mRNA, reported IC50 = 0.1 to 1 µM

Tested on HTT mRNA: Cc1nc2cc(O)c(-c3ccc(N4CC[C@@H](N(C)C(C)(C)C)C4)nn3)cc2o1 [Compound 859] . Observed IC50: 1 to 10 µM

Bench note, HTT mRNA: entry Cc1nc2cc(O)c(-c3cnc(N4CC[C@@H](NC(C)(C)C)C4)nn3)cc2o1 [Compound 808] , its IC50 = 1 to 10 µM

Lab entry: HTT mRNA assay, compound Cc1nc2cc(O)c(-c3ccc(N4CC[C@@H](NC(C)(C)C)C4)nn3)cc2o1 [Compound 812] , IC50 = < 0.1 µM

Reported IC50 (HTT mRNA) for entry COc1cc2cc(-c3ccc(N4CCC(NC(C)(C)C)C4)nn3)c(O)cc2nn1 (centres unmarked) [Compound 819] is 1 to 10 µM

So the reported IC50 for Cc1nc2c(F)c(O)c(-c3ccc(N4CC[C@H](NC(C)(C)C)C4)nn3)cc2o1 [Compound 843] , on HTT mRNA, turned out to be > 10 µM

HTT mRNA assay, compound CC(C)(C)NC1CCN(c2ccc(-c3cc4ccncc4cc3O)nn2)C1 (centres unmarked) [Compound 845] , recorded IC50 = < 0.1 µM

====

# Tested on: Target C mRNA
# test: RT-qPCR splicing assay panel, Target C canonical junction (CJ) mRNA
# Format: cell-based, human
# recorded_conditions: Homo sapiens, Table 4B; gene panel; read-out: Target C (IC50, decrease in CJ mRNA levels)
readout_type: IC50

// known answers, use as guide
CC(C)(C)NC1CCN(c2ccc(-c3cc4ccncc4cc3O)nn2)C1 (centres unmarked) [Compound 845] | 100 to 1000 nM
Cc1nc2cc(O)c(-c3ccc(N4CC[C@H](NC(C)(C)C)C4)nn3)cc2o1 [Compound 813] | 1000 to 10000 nM
Cn1ccc2cc(O)c(-c3ccc(N4CC[C@H](NC(C)(C)C)C4)nn3)cc2c1=O [Compound 873] | 1000 to 10000 nM
Cc1nc2cc(O)c(-c3cnc(N4CC[C@@H](N(C)C(C)(C)C)C4)nn3)cc2o1 [Compound 856] | 1000 to 10000 nM

Entry Cc1nc2cc(O)c(-c3ccc(N4CC[C@@H](NC(C)(C)C)C4)nn3)cc2o1 [Compound 812] ; assay system Target C mRNA; IC50 recorded at 100 to 1000 nM

Reading of IC50 for Cc1nc2cc(O)c(-c3ccc(N4CC[C@H](NC(C)(C)C(C)C)C4)nn3)cc2o1 [Compound 875] with Target C mRNA: 100 to 1000 nM

Form field IC50 for item Cn1ccc2cc(O)c(-c3cnc(N4CCC(NC(C)(C)C)C4)nn3)cc2c1=O (centres unmarked) [Compound 869] on Target C mRNA: > 10000 nM

Assay Target C mRNA, sample Cc1nc2cc(O)c(-c3cnc(N4CC[C@H](N(C)C(C)(C)C)C4)nn3)cc2o1 [Compound 857] , IC50 read: 100 to 1000 nM

Target C mRNA IC50 of Cc1nc2cc(O)c(-c3ccc(N4CCC(NC(C)(C)C(C)(C)C)C4)nn3)cc2o1 (centres unmarked) [Compound 835] is 100 to 1000 nM

Target C mRNA data for Cc1nc2c(F)c(O)c(-c3ccc(N4CC[C@H](NC(C)(C)C)C4)nn3)cc2o1 [Compound 843] ; its IC50: > 10000 nM

# lookup: Cc1nc2cc(O)c(-c3ccc(N4CCC(C)(NC(C)(C)C)C4)nn3)cc2o1 (centres unmarked) [Compound 837] on Target C mRNA, IC50 = 1000 to 10000 nM

# lookup: Cc1nc2cc(O)c(-c3ccc(N4CCC(NC(C)(C)C(C)C)C4)nn3)cc2o1 (centres unmarked) [Compound 862] on Target C mRNA, IC50 = 1000 to 10000 nM

Kindly note: Target C mRNA, Cc1ccc2cc(-c3ccc(N4CCC(NC(C)(C)C)C4)nn3)c(O)cc2n1 (centres unmarked) [Compound 817] , IC50 value reported: > 10000 nM

Given the molecule CC(C)(C)NC1CCN(c2ccc(-c3cc4oc(CC#N)nc4cc3O)nn2)C1 (centres unmarked) [Compound 820] and test system Target C mRNA, the measured IC50 is 1000 to 10000 nM

====

# Tested on: HTT mRNA
# test: RT-qPCR splicing assay, HTT canonical (CJ) and alternative (AJ) junction mRNA
# Type: cell-based, human
# recorded_conditions: Homo sapiens, 24 h, Table 3A; A673 or K562 cells, 24 h treatment; read-out: HTT CJ (IC50, decrease in CJ mRNA)
readout_type: IC50

Use these answered entries as a reference point.
COc1cc(-c2ccc(-c3ccc(N4CCC(NC5CC(F)(F)C5)C4)nn3)c(O)c2)cnn1 (centres unmarked) [Compound 334] | < 100 nM
COc1cc(-c2ccc(-c3ccc(N4CCC(NC5CCC5)C4)nn3)c(O)c2)ccn1 (centres unmarked) [Compound 305] | 100 to 1000 nM
Cc1ncc(-c2cc(O)c(-c3ccc(N4CCC(CNC5CCC5)C4)nn3)cc2F)s1 (centres unmarked) [Compound 342] | < 100 nM

// assay HTT mRNA, entry CC(C)(C)N[C@H]1CCN(c2ccc(-c3ccc(-c4cn[nH]c4)cc3O)nn2)C1 [Compound 101] , IC50 value = < 100 nM

Lab note: molecule COc1cc(-c2ccc(-c3cc(C)c(N4CC[C@H](NC5CCC5)C4)nn3)c(O)c2)cnn1 [Compound 449] tested on HTT mRNA; recorded IC50 was 100 to 1000 nM

Tested on HTT mRNA, the item Cc1ncc(-c2ccc(-c3ccc(N4CCC(NC5CCC5)C4)nn3)cc2F)s1 (centres unmarked) [Compound 344] showed IC50 equal to 1000 to 10000 nM

====

# System: HTT mRNA
# test: RT-qPCR splicing assay, HTT canonical (CJ) and alternative (AJ) junction mRNA
# Assay type: cell-based, human
# recorded_conditions: Homo sapiens, 24 h, Table 3A; A673 or K562 cells, 24 h treatment; read-out: HTT CJ (IC50, decrease in CJ mRNA)
pIC50: −log10 of the molar value.
readout_type: pIC50

COc1cc(-c2cc(O)c(-c3ccc(N4CC[C@@H](NC(C)(C)C)C4)nn3)cc2F)ncn1 [Compound 396] | 6.00 to 7.00
Cn1ccc(-c2ccc(-c3ccc(N4CCC(NC5CCC5)C4)nn3)c(O)c2)nc1=O (stereo not drawn) [Compound 306] | 5.00 to 6.00

Attention now shifts to the item below.
Value of pIC50 reported for the molecule CCOc1cc(-c2ccc(-c3ccc(N4CCC(NCC5CC5)C4)nn3)c(O)c2)ncn1 (stereo not drawn) [Compound 433] is < 5.00

====

Entries and their IC50 values follow.
# Tested on: HTT mRNA
# test: RT-qPCR splicing assay, HTT canonical (CJ) and alternative (AJ) junction mRNA
# Type: cell-based, human
# recorded_conditions: Homo sapiens, 24 h, Table 3A; A673 or K562 cells, 24 h treatment; read-out: HTT CJ (IC50, decrease in CJ mRNA)

Answered cases to consult:
COc1cc(-c2ccc(-c3ccc(N4CC[C@@H](NC5(CF)CC5)C4)nn3)c(O)c2)cnn1 | < 100 nM
COc1cc(-c2ccc(-c3ccc(N4CC[C@@H](NC5(C)CCC5)C4)nn3)c(O)c2)ncn1 | < 100 nM
COc1cc(-c2cc(O)c(-c3ccc(N4CC[C@@](C)(NC5CCC5)C4)nn3)cc2F)cnn1 (single isomer, unassigned) | < 100 nM
CC1(C)CC(Oc2ncc(-c3cc(F)c(-c4cn[nH]c4)cc3O)nn2)CC(C)(C)N1 | 100 to 1000 nM
CN(C1CCC1)[C@@H]1CCN(c2ccc(-c3ccc(-c4cn[nH]c4)cc3O)nn2)C1 | 100 to 1000 nM

Looking up Cc1nsc(-c2cc(O)c(-c3ccc(N4CC[C@@H](NCC5CC5)C4)nn3)cc2F)n1 , I found its IC50 recorded as 100 to 1000 nM

COc1cc(-c2ccc(-c3cc(C#N)c(OC4CC(C)(C)NC(C)(C)C4)nn3)c(O)c2)cnn1 yielded IC50 of 100 to 1000 nM
